Assay comment: Cell Viability - LYMP2-026 (AID 989);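 note: cells exposed to compound for 24 h at 37 °C; nearly all actives have a fitted effect of over 50% in size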
Assay setup: LYMP2-026 lymphoblastoid cell viability, qHTS; series mostly up to 92.2 µM
Text: NIH Chemical Genomics Center [NCGC] NIH Molecular Libraries Screening Centers Network [MLSCN] National Institutes of Environmental Health Sciences [NIEHS] National Toxicology Program [NTP] We have developed a 1536-well cell-based assay for quantitative high throughput screening (qHTS) against a number of cell lines to determine in vitro cytotoxicity of small molecules. […] 8. Detection; Luminescence; Viewlux plate reader […]
Records with an inconclusive call do not appear. Activity calls are given as the source filed them. Calls come from the whole dose curve; as a rule, active = well fitted cell-killing curve with a large enough effect; inconclusive = small, poorly fitted or top-dose-only effect; inactive = flat fitted curve, though single readings scatter.
The reply should name one outcome from active, inactive

[ask] For this compound, state the assay outcome: CCCCCCCCCCCCCCCC[n+]1ccccc1
[reply] active

[ask] Give the logged outcome of this assay for the following compound: C1=CC2C3C=CC(C3)C2C1 (stereo not drawn)
[reply] inactive

[ask] I would be grateful if you could indicate the recorded call for O=C(NO)c1ccccc1 .
[reply] inactive

[ask] Short answer needed: outcome of this test for Brc1ccccc1-c1ccccc1 ?
[reply] inactive

[ask] What outcome does the record of this test show for Nc1ccc(O)cc1 ?
[reply] active

[ask] Look up the recorded call for Oc1ccccc1 in this test.
[reply] inactive

[ask] Kindly provide the recorded test outcome for the following compound: c1ccc2occc2c1
[reply] inactive

[ask] Assay result, entry CCCC(=O)c1cc(O)c(O)cc1O — outcome?
[reply] inactive

[ask] I'd appreciate the recorded outcome for CC(C)(c1ccc(O)cc1)c1ccc(O)cc1 from this test.
[reply] inactive

[ask] So what was the verdict on Cc1ccc(O)cc1 in this test?
[reply] inactive

[ask] In this assay, the call recorded for Cc1cc(C(C)(C)C)c(O)c(C(C)(C)C)c1 was what?
[reply] inactive

[ask] Answer briefly: the call reported for O=C(c1ccccc1)c1ccccc1 in this assay.
[reply] inactive

[ask] Entry O=C(Oc1ccccc1)c1ccccc1O : call = ?
[reply] inactive

* * *

System: CRL-7250
Assay comment: Cytotoxic Profiling of Annotated Libraries Using Quantitative High-Throughput Screening (AID 1296008); note: nearly all actives have a fitted effect of over 60% in size
Assay setup: Five cell lines viability, CellTiter-Glo ATP luminescence, 48-72 h
Results filed as inconclusive are left out. Activity calls are given as the source filed them. The call rests on the fitted dose curve; in most records, active means well fitted inhibition curve with a large enough effect; inconclusive means small, poorly fitted or top-dose-only effect; inactive means flat fitted curve, though single readings scatter.
Just give me one of these, please: Yes = active, No = inactive

[ask] How did this test come out for O=C(CO)[C@@H](O)[C@H](O)[C@@H](O)CO ?
[reply] No

[ask] Could you please tell me the result logged for O=C(O)CCCC[C@@H]1SC[C@@H]2NC(=O)N[C@@H]21 in this assay?
[reply] No

[ask] Recorded test call requested for Nc1c2ccccc2nc2ccccc12
[reply] Yes

[ask] Answer briefly: the call reported for Cc1cc(O)c(C)c(C)c1O in this assay.
[reply] No

[ask] Status in this test for CN1N=C(C(N)=O)CCC1=O ?
[reply] No

[ask] What classification did CO/N=C(/C(=O)N[C@@H]1C(=O)N2C(C(=O)OCOC(=O)C(C)(C)C)=C(C)CS[C@H]12)c1csc(N)n1 end up with in this test?
[reply] No

[ask] Called result for CCc1cc2cc(OC)c(OC)cc2c(Cc2ccccc2)n1
[reply] No

[ask] What did the test return for C1N2CN3CN1CN(C2)C3 ?
[reply] No

[ask] Could you kindly confirm the outcome this assay logged for CCOc1ncc(F)c(=O)[nH]1 ?
[reply] No

[ask] # lookup: test call for CC(=O)OCC(=O)[C@@]1(O)CCC2C3CCC4=CC(=O)CC[C@]4(C)C3[C@@H](O)C[C@@]21C (stereo not given in full)
[reply] No

[ask] Returns: the outcome recorded for CCC1=C[C@@H]2CN(C1)Cc1c([nH]c3ccccc13)[C@@](C(=O)OC)(c1cc3c(cc1OC)N(C)[C@H]1[C@@](O)(C(=O)OC)[C@H](OC(C)=O)[C@]4(CC)C=CCN5CC[C@]31[C@@H]54)C2 in this assay.
[reply] Yes

[ask] Could you check what this test reported for Fc1ccc(C(c2ccc(F)cc2)N2CCNCC2)cc1 ?
[reply] No

[ask] GET /call?item= CCOC(=O)O[C@]1(C(=O)OCCl)CC[C@H]2[C@@H]3CCC4=CC(=O)C=C[C@]4(C)[C@H]3[C@@H](O)C[C@@]21C returns the recorded outcome of this test.
[reply] No

[ask] Per the assay record, what outcome was assigned to Cc1onc(-c2c(Cl)cccc2Cl)c1C(=O)Cl ?
[reply] No

[ask] What is the recorded call for this compound in the test? CO[C@@H]1[C@@H](OC)[C@H](C)[C@@](O)(CC(=O)O)O[C@H]1[C@H](C)[C@H]1O[C@@]2(CC[C@@](C)([C@H]3CC[C@@](C)([C@@H]4O[C@@H]([C@H]5O[C@](C)(O)[C@H](C)C[C@@H]5C)C[C@@H]4OC4C[C@H](OC)[C@@H](OC)[C@H](C)O4)O3)O2)C[C@H](O)[C@H]1C (stereo not given in full)
[reply] Yes

[ask] Fill in: this test's call for O=C(Oc1ccccc1)c1ccccc1O is ___
[reply] No

[ask] Please let me know the test result on file for Cc1cc2nc3ccc(=[N+](C)C)cc-3sc2cc1N .
[reply] Yes

[ask] What did the test return for Cc1cc(O)c2c(O)c3c(O)cccc3cc2c1 ?
[reply] No

[ask] Check the results log: what was the call for CC1(C)OC(=O)Nc2ccc(Br)cc21 ?
[reply] No

[ask] Give the logged outcome of this assay for the following compound: CN(C)CCCOC1(Cc2ccccc2)CCCCCC1
[reply] No

Origin of values: PubChem BioAssay (NCATS)
